tested on: A549 NSCLC; test: NCI tumour cell line growth inhibition, 48 h
Property Measured: TGI (µM)
Write the answer as a number in µM, unit excluded.

*Q* Name the recorded TGI of O=C(C1OC1c1cccc([N+](=O)[O-])c1)C12CC3CC(CC(C3)C1)C2 (centres undefined) , assay system A549 NSCLC.
*A* 26.6

*Q* Name the recorded TGI of "CCCCCCCCCCOC(=O)c1cc[n+](C)cc1" , assay system A549 NSCLC.
*A* 31

---

tested on: SF-539 CNS; test: NCI tumour cell line growth inhibition, 48 h
Each entry below lists one item and its recorded TGI value.

C1CC2=C(C1)C1=S(S2)SC2=C1CCC2    > 100 µM
CCC(C)(O)c1cn(-c2ccc(S(=O)(=O)O)cc2)nn1 (stereo unspecified)    > 100 µM
CCC(=O)C(C(=O)CC)c1c(OC(=O)c2ccccc2)ccc(O)c1C(=O)OC    > 100 µM
Cc1ccc(/S(Cc2ccccc2)=N\S(=O)(=O)c2ccc(C)cc2)cc1 (stereo unspecified)    > 100 µM
O=C(NC1(C(=O)O)CCCC1)c1ccccc1    > 100 µM

*Q* Annotate the compound "Cn1cc(C2=C(c3ccccc3C(F)(F)F)C(=O)NC2=O)c2ccccc21" with its measured TGI.
*A* > 25 µM

---

system: NCI/ADR-RES ovarian; experiment: NCI tumour cell line growth inhibition, 48 h
Property Measured: TGI

# example entries with known answers
Nc1c2cc3ccc2nc2ccc(cc12)OCCOCCOCCOCCOCCOCCO3    > 10 µM
CCN(CC)c1ccc2nc3ccc(N=Nc4ccc(O)cc4)cc3[n+](-c3ccccc3)c2c1    > 100 µM
CN(C)N=Nc1ccc2[nH]c(=O)[nH]c2c1    > 100 µM
O=C(NC1(C(=O)O)CCCC1)c1ccccc1    > 100 µM

*Q* Annotate the compound CC12CCC(CC1(Cl)Cl)C2 (centres undefined) with its measured TGI.
*A* > 100 µM

*Q* Annotate the compound C[C@H]1O[C@@H](C(C)(C)C)OC(=O)[C@@H]1C(OC(=O)c1ccccc1)c1cccc2ccccc12 (some centres undefined) with its measured TGI.
*A* > 100 µM

---

Each entry below lists one item and its recorded TGI value.
system: SF-268 CNS; test: NCI tumour cell line growth inhibition, 48 h

*Q* Annotate the molecule CCCCN1C(=O)/C(=c2\sc3n(c2=O)C2C(NN=3)N(CC)C(=O)N2CC)c2ccccc21 (stereo not drawn) with its measured TGI.
*A* 4.71 µM

---

tested on: MDA-MB-435; experiment: NCI tumour cell line growth inhibition, 48 h
Each entry below lists one item and its recorded TGI value.

# example entries with known answers
COc1ccc(-c2nsc3c2NC(=O)CC3c2cccc(Cl)c2)cc1 (centres undefined)    0.917 µM
CCN(CC)c1ccc(/C=N/NC(=O)CSc2nc3ccccc3c(=O)n2Cc2ccc(S(N)(=O)=O)cc2)c(O)c1    > 100 µM
Nc1ccc(-c2ccc3ncc4ccc(=O)n(-c5cccc(C(F)(F)F)c5)c4c3c2)cn1    3.26 µM
COc1ccc(/C=C/C(=O)Oc2ccccc2OC)cc1    > 80.5 µM
CNCCCNc1c2ccccc2nc2cccc([N+](=O)[O-])c12    0.00324 µM

*Q* Annotate the compound "Cc1noc(C)c1-c1cnc2c(-c3ccc(C(=O)O)cc3)cn([C@@H](C)c3ccccn3)c2c1" with its measured TGI.
*A* > 100 µM

*Q* Annotate the compound "COc1ccc2[nH]c(C(=O)OCc3ccc4cccc(O)c4n3)cc2c1" with its measured TGI.
*A* 3.13 µM

*Q* Annotate the compound "Cc1cc(NS(=O)(=O)c2ccc(Nc3c4ccccc4nc4c(C(=O)NCCO)cccc34)cc2)no1" with its measured TGI.
*A* > 100 µM

*Q* Annotate the compound "CC(=O)n1nc(-c2ccc3ccccc3c2)nc1C" with its measured TGI.
*A* > 100 µM

*Q* Annotate the compound "C=CCN(CCN(CC=C)S(=O)(=O)c1ccc(C)cc1)S(=O)(=O)c1ccc(C)cc1" with its measured TGI.
*A* > 100 µM

*Q* Annotate the compound "CCOc1ccc(N=Cc2ccnc3ccccc23)cc1" with its measured TGI.
*A* > 100 µM

*Q* Annotate the compound "C/C(=N\NC(N)=S)c1sc(-n2nc(-c3ccccc3)cc2-c2ccccc2)nc1C" with its measured TGI.
*A* > 100 µM

*Q* Annotate the compound "Cc1ccc(C(=O)N/N=C2/C(=O)c3c4ccccc4cc4cccc2c34)cc1" with its measured TGI.
*A* > 73.4 µM

*Q* Annotate the compound "CCOC(=O)/C=C(/C(=O)OCC)n1ccc(=O)n(Cc2cnnn2CCCCOC(C)=O)c1=O" with its measured TGI.
*A* > 100 µM

---

test system: DU-145 prostate; assay: NCI tumour cell line growth inhibition, 48 h
Each entry below lists one item and its recorded TGI value.

[N-]=[N+]=Nc1ccc2c(c1)Sc1ccccc1N2CCCCN1CCN(C(=O)CCNC(=O)Cc2ccc(C(=O)c3ccccc3)cc2)CC1    > 100 µM
COc1cc(-c2cc3ncccc3c3[nH]c(=O)c4cccnc4c23)cc(OC)c1OC    > 100 µM

// next entry
*Q* Annotate the compound "O=C(O)Cn1ccc2ccccc21" with its measured TGI.
*A* > 100 µM

---

tested on: BT-549 breast; assay: NCI tumour cell line growth inhibition, 48 h
Property Measured: TGI

# example entries with known answers
Cn1cc(C2=C(c3ccccc3C(F)(F)F)C(=O)NC2=O)c2ccccc21    > 25 µM
NCCNC(=O)CN(CC(=O)O)C1CCCCC1N(CC(=O)O)CC(=O)O (centres undefined)    > 100 µM
C=CCn1c(-c2ccc(Cl)cc2)csc1=Nc1ccccc1OC    > 100 µM

// next entry
*Q* Annotate the compound Cc1ccc(SCC(OCn2cnc3c(Cl)nc(N)nc32)[C@H](C)F)cc1 (some centres undefined) with its measured TGI.
*A* > 100 µM

---

Each entry below lists one item and its recorded TGI value.
test system: MDA-MB-231 breast; assay: NCI tumour cell line growth inhibition, 48 h

# example entries with known answers
COC(=O)C1(O)C(c2ccccc2)NC2(C)CCCC21 (stereo unspecified)    > 100 µM
O=c1[nH]c(=O)n([C@@H]2O[C@H](CO)[C@@H](O)[C@@H]2F)cc1I    > 100 µM
C/C(O)=C(\C=NC(=S)c1ccncc1)C(=O)Nc1ccccc1C    > 100 µM

*Q* Annotate the compound "C=CCN(CCN(CC=C)S(=O)(=O)c1ccc(C)cc1)S(=O)(=O)c1ccc(C)cc1" with its measured TGI.
*A* > 100 µM

*Q* Annotate the compound "CC(C)(C)c1nc(-c2cccc(NS(=O)(=O)c3c(F)cccc3F)c2F)c(-c2ccnc(N)n2)s1" with its measured TGI.
*A* > 69.9 µM

*Q* Annotate the compound CN(C)c1ccc(/C=C(\NC(=O)c2ccccc2)C(=O)NC(Cc2c[nH]c3ccccc23)C(=O)O)cc1 (stereo unspecified) with its measured TGI.
*A* > 100 µM

---

test system: OVCAR-4 ovarian; test: NCI tumour cell line growth inhibition, 48 h
Property Measured: TGI

*Q* Name the recorded TGI of C#CC(O)/C=C/C(O)CCCC(O)CC#CC(O)C#CCCCCC(O)/C=C/CCCC(O)/C=C/CCCCCCCCCCCCCC(O)C(O)C#CC(=O)O (stereo unspecified) , assay system OVCAR-4 ovarian.
*A* > 25 µM

*Q* Name the recorded TGI of CCOC(=O)C1(C(=O)OCC)C=C(c2ccccc2)N(C2OC(COC(C)=O)C(OC(C)=O)C(OC(C)=O)C2OC(C)=O)C1=S (stereo unspecified) , assay system OVCAR-4 ovarian.
*A* > 100 µM

*Q* Name the recorded TGI of Cc1ccc(C2C(Cl)C(=O)N2NC(=O)c2ccc(N)cc2)cc1 (stereo unspecified) , assay system OVCAR-4 ovarian.
*A* > 100 µM

*Q* Name the recorded TGI of "O=c1c2c3c(sc2nc2n1N=CN(c1ccc(F)cc1)C2)CCCC3" , assay system OVCAR-4 ovarian.
*A* > 100 µM

*Q* Name the recorded TGI of "O=C(/C=C\n1cnc(-c2cc(C(F)(F)F)cc(C(F)(F)F)c2)n1)N1CC(F)(F)C1" , assay system OVCAR-4 ovarian.
*A* 4.13 µM

*Q* Name the recorded TGI of "CC(=O)O[C@H](C[C@H](C(C)C)N(C)C(=O)[C@@H](NC(=O)[C@H]1CCCCN1C)C(C)C)c1cccc(C(=O)N[C@@H](Cc2ccccc2)C[C@H](C)C(=O)O)n1" , assay system OVCAR-4 ovarian.
*A* > 25 µM

---

Each entry below lists one item and its recorded TGI value.
tested on: MDA-MB-435; assay: NCI tumour cell line growth inhibition, 48 h
Write the answer as a number in µM, unit excluded.

*Q* Annotate the compound "CN1CCN(CCCOc2cccc3nc(Nc4ccc(F)c(F)c4)ccc23)CC1" with its measured TGI.
*A* 5.14

---

system: HS 578T breast; assay: NCI tumour cell line growth inhibition, 48 h; in the data active means GI50 below about 0.43 µM; inactive means the rest
Use one of these outcomes when replying: active, inactive

Please review the following examples before continuing.
Nc1ccc(-c2ccc3ncc4ccc(=O)n(-c5cccc(C(F)(F)F)c5)c4c3c2)cn1    active
COc1cc(NC(C)CCCNC(C)C)c2ncccc2c1OC (stereo not drawn)    inactive

# input for lookup
*Q* Entry "COc1ccc2c(c1)O/C(=C\c1cccc(OCC(=O)Nc3nc(C)c(C)s3)c1)C2=O" : call = ?
*A* inactive
